Data credit: the supplement of paper PMC10567573

test: protein stability index of a GFP-peptide fusion (GPS, HEK-293T) (PSI 1-6); higher = more stable; conditions: treatment: MLN4924 1 uM, 8 h; c terminus: a fixed tail appended;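 also: 24-mer peptide tiles fused after GFP, lentivirally expressed, FACS-sorted into six equal bins by GFP/DsRed ratio, decoded by Illumina sequencing, PSI is the read-weighted mean bin number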
measuredEndpoint: protein stability index

LPSNLVQYYDDEKKTWKILTIMPY [KLHL14] ... 2.3
LDLMKEWIAHSEKLPRKVLQHVSE [SPACA9] ... 3.67
FGLTYRDAENQKNWLDPAKEIKKQ [EPB41L3] ... 4.15
ELHIHRLRYLSSIWNILDLVVILL [PKD2L1] ... 2.54
MQCLISNVEAQLSEIRCDLERQNQ [KRT36] ... 3.32
PESLTKPDQVAPFTFLQPLPLSPG [ATF4] ... 4.2
ELIGACEFMKDRLYFATLRNRPKS [CDC14A] ... 2.24
GSLEKALPIIQSNQVSSNSWGIAG [DLC1] ... 3.6

# return protein stability index for each item in the list
1. RQVQSLMVHQRKLEAELLQIEERH [SMARCE1]
2. PLRAAHRRFNFDTDRPLLSTLEES [SMG5]
3. PVCSALLDPVLQAPGTGPAQTELL [FANCE]
4. KVVLIGDSGVGKSNLLSRFTRNEF [RAB11A]
5. SITSKPATLTTTSATSKLIHPDED [ZNF207]

1: 4.23; 2: 3.94; 3: 4.37; 4: 2.28; 5: 5.44
